assay: Protein-lipid overlay, panel of phosphoinositides; format: binding; details: GST fusion protein, FIG. 2
VALUE TYPE: Binding to any other phosphoinositide (than the one bound)

MOLECULE: FAPP1: GST fusion of the PH domain of human FAPP1 (residues 1 to 99), PtdIns-Four-phosphate AdaPtor Protein-1, expressed in E. coli (protein, UniProt Q9HB20 1-99, looked up, fragment, PH domain GST fusion, GST fusion of the PH domain of human FAPP1 (residues 1 to 99), PtdIns-Four-phosphate AdaPtor Protein-1, expressed in E. coli) MEGVLYKWTNYLTGWQPRWFVLDNGILSYYDSQDDVCKGSKGSIKMAVCEIKVHSADNTRMELIIPGEQHFYMKAVNAAERQRWLVALGSSKACLTDTR
RESULT: did not bind

MOLECULE: PH domain of mouse centaurin-β2: GST fusion of mouse centaurin-β2 residues 266 to 390, expressed in 293 cells (protein, UniProt Q6ZQK5 266-390, looked up, fragment, PH domain GST fusion, GST fusion of mouse centaurin-β2 residues 266 to 390, expressed in 293 cells) GIVMEGYLFKRASNAFKTWNRRWFSIQNNQLVYQKKFKDSPTVVVEDLRLCTVKHCEDIERRFCFEVVSPTKSCMLQADSEKLRQAWIKAVQTSIATAYREKGDESEKLDKKSSPSTGSLDSGNE
RESULT: did not bind
